# Test system: peripheral blood mononuclear cells (PBMC), T cells
# method: ELISpot assay, IL-5 release (SFC) after stimulation with a-synuclein epitope pools
# Format: cell-based, human
# condition_notes: peptides of pool 'Poshpho', 8 donors tested
IL-g Total SFC by entry:
Write the number in SFC without appending the unit.

Before answering, review these 6 worked examples.
Fill in: IL-g Total SFC of 3521.0028 (MPSEEGYQDY; listed as Homo sapiens) is ___
113

Further, for 3521.0027 (AYEMPSEEGY; listed as Homo sapiens) ?
87

Further, for 3521.0026 (MPSEEGYQD; listed as Homo sapiens) ?
93

Further, for 3521.004 (DNEAYEMPSE; listed as Homo sapiens) ?
0

Further, for 3521.0058 (SEEGYQDYEP; listed as Homo sapiens) ?
0

Further, for 3521.0002 (PSEEGYQDY; listed as Homo sapiens) ?
0

More entries:
Fill in: IL-g Total SFC of 3521.0056 (YEMPSEEGYQ; listed as Homo sapiens) is ___
167

Further, for 3521.0038 (EMPSEEGYQD; listed as Homo sapiens) ?
33

Further, for 3521.0023 (YEMPSEEGY; listed as Homo sapiens) ?
193

Every entry's value here was drawn from patent US20170184612A1.
